system: OVCAR-5 ovarian; assay: NCI-60 one-dose screen, 48 h; settings: 10 µM unless noted
This is part of a sample that, as a whole, favours compounds with a hit. Of some 83,000 tested, about 20% had one in any assay. The source made the active and inactive calls. How the source made its calls: active means growth percent below 10; inactive means the rest.
Possible outcomes: active, inactive

{"Compound": "O=c1c2cccc(F)c2sc2c(N3CCNCC3)nc3ccccc3c12", "Answer Label": "inactive"}
{"Compound": "COc1ccc(Cn2c(Br)c3c(c2-c2cc(OC)c(OC)c(OC)c2)CCc2sc(NC(=O)c4ccc(OC)cc4)nc2-3)cc1", "Answer Label": "inactive"}
{"Compound": "COc1ccc(/C=C2\\SC(=Nc3ccccc3)NC2=O)cc1", "Answer Label": "active"}
{"Compound": "O=C(c1nc2ccccc2[nH]1)C1[C@@H](c2cccc(O)c2)C2CC3CCCCC3N2[C@@]12C(=O)Nc1cc(Cl)ccc12 (some centres undefined)", "Answer Label": "inactive"}

----------
tested on: PC-3 prostate; assay: NCI-60 one-dose screen, 48 h (100 = growth as untreated, 0 = no growth, -100 = all killed); settings: 10 µM unless noted
About 83,000 compounds went through this panel and 20% of them were active in at least one assay; those are over-represented in the sample as a whole. Activity calls are given as the source filed them. The calls were made as follows: active = growth percent below 10; inactive = the rest.
# growth listing for each entry below

{"Molecule": "CNCCNc1nc2ccccc2c2c(=O)c3cc(OC)ccc3sc12", "growth": "14% (inactive)"}
{"Molecule": "Clc1ccc(Oc2ccc(Nc3ncnc4onc(-c5ccccc5)c34)cc2)c(Cl)c1", "growth": "94.2% (inactive)"}
{"Molecule": "C#CCn1cc(C=C2C(=O)N(C)C(=O)N(C)C2=O)c2cc(Cl)ccc21", "growth": "103% (inactive)"}
{"Molecule": "COCCN(C(=O)Cc1cccs1)C(C(=O)NCc1ccc(OC)cc1)c1ccc(C(C)C)cc1 (centres undefined)", "growth": "47.5% (inactive)"}
{"Molecule": "O=c1oc2ccc(Cl)cc2c(=O)n1-c1cc(C(F)(F)F)cc(C(F)(F)F)c1", "growth": "11.9% (inactive)"}
{"Molecule": "CC[C@]1(O)C[C@@H]2CN(CCc3c([nH]c4ccccc34)[C@@](C(=O)OC)(c3cc4c(cc3OC)N(C)[C@H]3[C@@](O)(C(=O)OC)[C@H](OC(C)=O)[C@]5(CC)C=CCN6CC[C@]43[C@@H]65)C2)C1", "growth": "20% (inactive)"}
{"Molecule": "O=C(NN1C(=O)CSC1c1ccc(Cl)cc1)c1[nH]c2ccc(F)cc2c1-c1ccccc1 (centres undefined)", "growth": "42.7% (inactive)"}
{"Molecule": "OCCNc1nc(Nc2ccc(C3=NN(c4cc(Cl)cc(Cl)c4)C(c4ccc(C(F)(F)F)cc4)C3)cc2)nc(N2CCOCC2)n1 (centres undefined)", "growth": "62.9% (inactive)"}
{"Molecule": "O=c1c(-c2nc3ccccc3[nH]2)cc2ccccc2n1Cc1cn(Cc2ccccc2Cl)nn1", "growth": "36.6% (inactive)"}
{"Molecule": "O=C1Nc2ccccc2/C1=C/c1ccc[nH]1", "growth": "106% (inactive)"}
{"Molecule": "COC(=O)/C(CCC=C(C)C)=C1\\[C@@H](OC(C)=O)C[C@@]2(C)[C@H]1CC(=O)[C@H]1[C@@]3(C)CC[C@H](NCc4ccccc4)[C@@H](C)[C@@H]3CC[C@@]12C", "growth": "70.4% (inactive)"}
{"Molecule": "O=C(CSc1ncccc1C(=O)O)Nc1ccc(Oc2ccccc2)cc1", "growth": "99.8% (inactive)"}
{"Molecule": "Nc1no[n+]([O-])c1-c1nnc2c(n1)-c1ccccc1C2=O", "growth": "33.6% (inactive)"}
{"Molecule": "CCCCN1CCN(c2ccc3nc(-c4ccc5nc(-c6ccc(OC)c(OC)c6)[nH]c5c4)[nH]c3c2)CC1", "growth": "14.3% (inactive)"}
{"Molecule": "Cc1c(-c2noc(-c3ccc([N+](=O)[O-])cc3)n2)no[n+]1[O-]", "growth": "92.5% (inactive)"}
{"Molecule": "O=C(O)c1cn(C2CC2)c2cc(N3CCN(C(=O)C[n+]4ccccc4)CC3)c(F)cc2c1=O", "growth": "106% (inactive)"}
{"Molecule": "Cc1ccc2cc3c(N)c4c(C)ccc(C)c4nc3nc2c1", "growth": "63.9% (inactive)"}
{"Molecule": "O=C(NC(=S)Nc1cccc(NC(=S)NC(=O)c2ccccc2)c1)c1ccccc1", "growth": "61.3% (inactive)"}
{"Molecule": "Fc1ccc(Oc2ccc(Nc3ncnc4onc(-c5ccccc5)c34)cc2)cc1", "growth": "101% (inactive)"}

----------
test system: MCF7 breast; experiment: NCI-60 one-dose screen, 48 h; details: 10 µM
About 83,000 compounds went through this panel and 20% of them were active in at least one assay; those are over-represented in the sample as a whole. Activity calls are given as the source filed them. Rule for the calls: active = growth percent below 10; inactive = the rest.
Possible outcomes: active, inactive

{"Compound": "COc1ccc(C2=Nn3c(NN)nnc3SC2)cc1", "Tested System": "MCF7 breast", "Answer Label": "inactive"}
{"Compound": "CCOC(=O)c1sc(-c2ccc(OS(=O)(=O)C[C@]34CCC(CC3=O)C4(C)C)c(C=O)c2)nc1C", "Tested System": "MCF7 breast", "Answer Label": "active"}
{"Compound": "COc1ccc(-c2cn3c(C(=O)Nc4ccccc4Cl)c(-c4ccccc4)c4c3n2CCCC4)cc1", "Tested System": "MCF7 breast", "Answer Label": "inactive"}
{"Compound": "CC(=O)c1ccc(Nc2nc(NCCO)nc(Nc3ccc(Cl)cc3)n2)cc1", "Tested System": "MCF7 breast", "Answer Label": "inactive"}
{"Compound": "O=C1N=c2ccccc2=C1c1sc(=Nc2ccccc2)n(Nc2ccccc2)c1O", "Tested System": "MCF7 breast", "Answer Label": "inactive"}
{"Compound": "O=C(Nc1ccc(N2CCNCC2)cn1)c1[nH]ncc1Nc1ncnc2sccc12", "Tested System": "MCF7 breast", "Answer Label": "inactive"}
{"Compound": "CCOC(=O)c1cc2c(n1Cc1ccccc1)-c1oncc1CCC2", "Tested System": "MCF7 breast", "Answer Label": "inactive"}
{"Compound": "COc1c2ccoc2c(/C=C/C=O)c2oc(-c3ccccc3)cc(=O)c12", "Tested System": "MCF7 breast", "Answer Label": "inactive"}
{"Compound": "Nc1nc2c(ncn2[C@@H]2O[C@H](CS)[C@@H](O)[C@H]2O)c(=O)[nH]1", "Tested System": "MCF7 breast", "Answer Label": "inactive"}
{"Compound": "COc1ccc(Nc2cc(C)nc(NCc3ccccc3)n2)cc1", "Tested System": "MCF7 breast", "Answer Label": "inactive"}
{"Compound": "FC(F)(F)c1cccc(Nc2nc3ccccc3nc2Nc2cccc(C(F)(F)F)c2)c1", "Tested System": "MCF7 breast", "Answer Label": "active"}
{"Compound": "O=S(=O)(Nc1ncccn1)c1ccc(NC2Nc3nc4ccccc4nc3S2)cc1 (configuration not stated)", "Tested System": "MCF7 breast", "Answer Label": "inactive"}
{"Compound": "CS(=O)(=O)Nc1ccc(C(=O)NC(C(=O)NO)c2ccc(-c3cccc(F)c3)cc2)cc1 (configuration not stated)", "Tested System": "MCF7 breast", "Answer Label": "inactive"}
{"Compound": "CC[C@]1(O)C[C@@H]2CN(CCc3c([nH]c4ccccc34)[C@@](C(=O)OC)(c3cc4c(cc3OC)N(C)[C@H]3[C@@](O)(C(=O)OC)[C@H](OC(C)=O)[C@]5(CC)C=CCN6CC[C@]43[C@@H]65)C2)C1", "Tested System": "MCF7 breast", "Answer Label": "inactive"}
{"Compound": "Cc1sc2ncnc(Sc3nc4ccccc4[nH]3)c2c1C", "Tested System": "MCF7 breast", "Answer Label": "active"}
{"Compound": "COc1ccc(-c2nsc3c2NC(=O)CC3c2cccc(OC)c2)cc1 (configuration not stated)", "Tested System": "MCF7 breast", "Answer Label": "inactive"}
{"Compound": "CCC1=C[C@@H]2CN(C1)Cc1c([nH]c3ccccc13)[C@@](C(=O)OC)(c1cc3c(cc1OC)N(C)[C@H]1[C@@](O)(C(=O)OC)[C@H](OC(C)=O)[C@]4(CC)[C@@H]5C[C@@H]5CN5CC[C@]31[C@@H]54)C2", "Tested System": "MCF7 breast", "Answer Label": "active"}
{"Compound": "COc1cc(-c2c3c(cn2S(=O)(=O)c2ccccc2)-c2nc(N)sc2CC3)cc(OC)c1OC", "Tested System": "MCF7 breast", "Answer Label": "inactive"}
{"Compound": "O=C(Cc1ccccc1)NC(c1ccc(Cl)cc1)c1c(O)ccc2ccccc12 (configuration not stated)", "Tested System": "MCF7 breast", "Answer Label": "active"}
{"Compound": "O=C(/C=C/c1ccc(F)cc1)c1ccc(Nc2nc(NCCO)nc(Nc3ccc(Cl)cc3)n2)cc1", "Tested System": "MCF7 breast", "Answer Label": "active"}
{"Compound": "Brc1ccc(Oc2ccc(Nc3ncnc4onc(-c5ccccc5)c34)cc2)cc1", "Tested System": "MCF7 breast", "Answer Label": "inactive"}
{"Compound": "COc1cc(NC(=O)CCSc2nc3ccccc3c(=O)n2CCc2ccccn2)cc(OC)c1OC", "Tested System": "MCF7 breast", "Answer Label": "inactive"}

Source of measurements: PubChem BioAssay (NCI)
